# Assay: Inhibition of HIV1 reverse transcriptase by SPA assay
Value type: pIC50
Would you please state pIC50, meaning minus log10 of the concentration in mol/L, as a bare number?

Illustrative cases are given below, each with its answer.
# Mol smiles, Measured result
rows = [
    ("O=C(CSC(=O)N1CCCc2cc(Cl)cc(Cl)c21)Nc1ccc(C(=O)NCc2ccccc2)cc1Cl", 8.70),
    ("CS(=O)(=O)c1ccc(NC(=O)CSC(=O)N2CCCc3cc(Cl)cc(Cl)c32)c(Cl)c1", 8.40),
    ("NS(=O)(=O)c1ccc(NC(=O)CNC(=O)N2CCCc3cc(Cl)cc(Cl)c32)c(Cl)c1", 6.47),
]

Request: Given the molecule `NS(=O)(=O)c1ccc(NC(=O)CCC(=O)N2CCCc3cc(Cl)cc(Cl)c32)c(Cl)c1` , what is its reported pIC50?
Result: 6.71
